Kindly supply the reported CI (combination index), AChE values for the records listed here.
molecular target: AChE (Homo sapiens); test: Synergism of antipsychotics with donepezil/rivastigmine (binary mixtures), AChE; settings: rivastigmine 50 μmol/L + antipsychotic at TPCmax; ComboSyn
Sequence (P22303 32-617 isoform P22303-2 limits assumed): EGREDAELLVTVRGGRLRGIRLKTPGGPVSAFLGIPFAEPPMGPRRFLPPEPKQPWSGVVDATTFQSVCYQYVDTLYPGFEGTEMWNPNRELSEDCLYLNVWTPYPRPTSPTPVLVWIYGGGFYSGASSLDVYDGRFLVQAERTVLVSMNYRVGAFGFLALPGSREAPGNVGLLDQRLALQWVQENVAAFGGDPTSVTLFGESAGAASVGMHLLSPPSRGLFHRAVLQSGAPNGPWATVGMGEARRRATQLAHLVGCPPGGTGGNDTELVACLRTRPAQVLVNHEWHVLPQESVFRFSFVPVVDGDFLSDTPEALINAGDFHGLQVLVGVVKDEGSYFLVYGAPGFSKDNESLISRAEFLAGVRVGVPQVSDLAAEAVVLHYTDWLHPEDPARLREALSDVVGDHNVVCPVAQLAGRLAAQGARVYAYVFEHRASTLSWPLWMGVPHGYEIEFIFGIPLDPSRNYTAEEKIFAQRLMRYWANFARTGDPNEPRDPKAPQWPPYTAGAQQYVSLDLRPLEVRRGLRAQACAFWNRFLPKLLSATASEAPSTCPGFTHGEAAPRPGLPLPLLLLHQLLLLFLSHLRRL

Annotate the compound O=C(CCCN1CCC(O)(c2ccc(Br)cc2)CC1)c1ccc(F)cc1 with its measured CI (combination index), AChE. 0.49

Annotate the compound O=C(CCCN1CCC(O)(c2ccc(Cl)cc2)CC1)c1ccc(F)cc1 with its measured CI (combination index), AChE. 0.79

Annotate the compound O=c1[nH]c2ccccc2n1C1CCN(CCCC(c2ccc(F)cc2)c2ccc(F)cc2)CC1 [Pimozide, pimozide] with its measured CI (combination index), AChE. 0.57

Annotate the compound O=C(CCCN1CCC(n2c(O)nc3ccccc32)CC1)c1ccc(F)cc1 with its measured CI (combination index), AChE. 0.63

----------
molecular target: UniProt P22303; assay: Synergism of antipsychotics with donepezil/rivastigmine (binary mixtures), AChE; settings: rivastigmine 5 μmol/L + antipsychotic at TPCmax; ComboSyn;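 also: antipsychotic concentration kept fixed across all measurements, selected from estimated therapeutic plasma levels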
quantity-name: CI (combination index), AChE
// keep it numeric: no unit symbol after the value

Annotate the compound O=c1[nH]c2ccccc2n1C1CCN(CCCC(c2ccc(F)cc2)c2ccc(F)cc2)CC1 [Pimozide, pimozide] with its measured CI (combination index), AChE. 0.26

Annotate the compound O=C(CCCN1CCC(O)(c2ccc(Cl)cc2)CC1)c1ccc(F)cc1 with its measured CI (combination index), AChE. 0.39

Annotate the compound O=C(CCCN1CCC(n2c(O)nc3ccccc32)CC1)c1ccc(F)cc1 with its measured CI (combination index), AChE. 0.31

Annotate the compound O=C(CCCN1CCC(O)(c2ccc(Br)cc2)CC1)c1ccc(F)cc1 with its measured CI (combination index), AChE. 0.32

----------
target: BuChE (Homo sapiens, UniProt P06276); assay: Synergism of antipsychotics with donepezil/rivastigmine (binary mixtures), BuChE; conditions: donepezil 5 μmol/L + antipsychotic at TPCmax; ComboSyn;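 also: combination index derived by median-effect analysis of combined drug effects on the cholinesterase, with values below 1 meaning synergism, exactly 1 additivity and above 1 antagonism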
Sequence (P06276 29-602): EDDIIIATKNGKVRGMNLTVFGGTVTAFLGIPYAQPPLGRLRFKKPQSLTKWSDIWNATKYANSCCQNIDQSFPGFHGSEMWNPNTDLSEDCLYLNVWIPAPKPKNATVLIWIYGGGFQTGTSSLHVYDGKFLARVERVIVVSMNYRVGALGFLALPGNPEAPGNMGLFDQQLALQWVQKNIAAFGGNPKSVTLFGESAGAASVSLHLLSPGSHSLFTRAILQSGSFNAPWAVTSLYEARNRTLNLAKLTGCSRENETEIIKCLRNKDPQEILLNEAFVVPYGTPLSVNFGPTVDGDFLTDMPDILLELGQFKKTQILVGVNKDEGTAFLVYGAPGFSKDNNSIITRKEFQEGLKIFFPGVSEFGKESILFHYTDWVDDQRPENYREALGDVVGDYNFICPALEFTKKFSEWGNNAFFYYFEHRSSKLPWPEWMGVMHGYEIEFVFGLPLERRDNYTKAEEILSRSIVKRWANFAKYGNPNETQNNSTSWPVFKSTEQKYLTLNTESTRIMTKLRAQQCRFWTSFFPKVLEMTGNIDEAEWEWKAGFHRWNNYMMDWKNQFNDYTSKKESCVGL
quantity-name: CI (combination index), BuChE
// keep it numeric: no unit symbol after the value

Annotate the compound O=C(CCCN1CCC(n2c(O)nc3ccccc32)CC1)c1ccc(F)cc1 with its measured CI (combination index), BuChE. 0.50

Annotate the compound O=C(CCCN1CCC(O)(c2ccc(Br)cc2)CC1)c1ccc(F)cc1 with its measured CI (combination index), BuChE. 0.52

Annotate the compound OC1(c2ccc(Cl)c(C(F)(F)F)c2)CCN(CCCC(c2ccc(F)cc2)c2ccc(F)cc2)CC1 with its measured CI (combination index), BuChE. 0.98

Annotate the compound O=C(CCCN1CCC(O)(c2ccc(Cl)cc2)CC1)c1ccc(F)cc1 with its measured CI (combination index), BuChE. 0.67

Annotate the compound OCCOCCN1CCN(C2=Nc3ccccc3Sc3ccccc32)CC1 with its measured CI (combination index), BuChE. 0.64

Annotate the compound O=c1[nH]c2ccccc2n1C1CCN(CCCC(c2ccc(F)cc2)c2ccc(F)cc2)CC1 [Pimozide, pimozide] with its measured CI (combination index), BuChE. 0.55

----------
target: human plasma butyrylcholinesterase (Homo sapiens, UniProt P06276); construct: The solution of plasma 200-fold diluted with 0.9% NaCl; from tissue; host or cells: citrated plasma from blood of healthy human donors; assay: BuChE inhibition, modified Ellman's method; type: biochemical; details: experimental data; mean ± SD, n = 6–9; read-out: IC50 BuChE
Sequence (P06276 29-602): as above
quantity-name: IC50 (µM)
Just the number in µM, nothing appended.

Annotate the compound OCCOCCN1CCN(C2=Nc3ccccc3Sc3ccccc32)CC1 with its measured IC50. 6.08

Annotate the compound CN(C)CCCN1c2ccccc2Sc2ccccc21 with its measured IC50. 0.19
